Test system: KRAS G12V dependent lung adenocarcinoma cell line, NCI-H441
Assay: Cellular pERK (Thr202/Tyr204) FRET/HTRF assay
Assay type: cell-based
Conditions: Homo sapiens, NCI-H441, cellular pERK (Thr202/Tyr204) HTRF, NCI-H441 cells
recorded-metric: IC50

{"columns": ["molecule", "recorded-metric", "experimental-result"],
 "data": [
  ["C#Cc1c(F)ccc2cccc(-c3ncc4c(N5CCOC[C@H]6[C@H](F)[C@H]65)nc(OC[C@@]56CCCN5CC(=C)C6)nc4c3F)c12 [Example 143]", "IC50", "< 50 nM"],
  ["C#Cc1c(F)ccc2cccc(-c3ncc4c(N5CCCC[C@H]6[C@H](F)[C@H]65)nc(OC[C@]56CC(=C)CN5CCC65CC5)nc4c3F)c12 [Example 423]", "IC50", "< 50 nM"],
  ["C#Cc1c(F)ccc2cc(N)cc(-c3ncc4c(N5CCOC[C@@H]6[C@@H](Cl)[C@@H]65)nc(OC[C@]56CC(=C)CN5CCC65CC5)nc4c3C)c12 [Example 347]", "IC50", "500 to 10000 nM"]
]}
